- Tested system: human CD123 (IL3RA) on cells (human) (UniProt P26951)
- Sequence (P26951 19-378): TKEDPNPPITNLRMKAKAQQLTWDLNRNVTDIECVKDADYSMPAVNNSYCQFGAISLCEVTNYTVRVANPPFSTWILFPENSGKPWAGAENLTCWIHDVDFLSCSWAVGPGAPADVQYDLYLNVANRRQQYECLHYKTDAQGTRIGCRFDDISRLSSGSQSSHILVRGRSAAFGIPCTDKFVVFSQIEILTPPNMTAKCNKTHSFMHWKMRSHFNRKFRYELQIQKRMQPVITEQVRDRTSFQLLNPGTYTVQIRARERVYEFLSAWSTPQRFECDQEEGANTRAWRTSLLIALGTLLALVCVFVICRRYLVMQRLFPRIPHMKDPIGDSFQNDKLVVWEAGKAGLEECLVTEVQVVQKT
- Method notes: flow cytometry, THP-1 cells, 3 µg antibody
Measured metric: % FITC positive Cells (%)
Answer format: numeric, % implied, no suffix.

Q: I would be grateful if you could share the reported % FITC positive Cells for CODV-Fab BFX-3E3-D3 × CD3 (bispecific antibody, part only; not given: CD3 arm, linkers, constant domains, part only) light, part: QFVLTQPNSVSTNLGSTVKLSCKRNTGNIGSNYVNWYQQHEGRSPTTMIYRDDKRPDGVPDRFSGSIDRSSNSALLTINNVQTEDEADYFCQSYSSGINIIFGGGTKLTVL heavy, part: QVQLQESGPGLVQPSQTLSLTCTVSGFSLTTYDVHWVRQPPGKGLEWMGRIQNGGITDYNSALKSRLIISRDTSKSQVFLKMNSVQTEDTAMYFCAKTGSYFYAFDHWGQGTLVTVSS .
Ans: 99
